Measured SP (relative sweetening potency) accompanies every entry in the list below.
run.description: Sweetening potency: taste comparison by a team of eight experienced people with a sucrose reference solution
condition.summary: Table 3; weight basis, compared with a 2% aqueous solution of sucrose
Protocol: The sweetening potency of the compounds described in the Examples was evaluated by a team of eight experienced people. This is done by comparing the taste of the compounds, in aqueous solution at variable concentrations, with a 2%, 5 % or 10 % reference solution of sucrose. […]

For orientation, consider the following solved cases.
molecule: CC(Oc1ccccc1)C(=O)N[C@@H](CCC(=O)O)C(=O)Nc1ccc(C#N)nc1 (stereo partly shown)
SP (relative sweetening potency): 13000
--
molecule: C=CCC(C)(C)C(=O)N[C@@H](CCC(=O)O)C(=O)Nc1ccc(C#N)cc1
SP (relative sweetening potency): 500
--
molecule: CCC(C(=O)N[C@@H](CCC(=O)O)C(=O)Nc1ccc(C#N)cc1)c1ccccc1 (stereo partly shown)
SP (relative sweetening potency): 2700

## Input What value of SP (relative sweetening potency) has been reported for the following molecule? `CCC[C@@H](C)C(=O)N[C@@H](CCC(=O)O)C(=O)Nc1ccc(C#N)cc1`
## Output 500

## Input What value of SP (relative sweetening potency) has been reported for the following molecule? `C[C@@H](C(=O)N[C@@H](CCC(=O)O)C(=O)Nc1ccc(C#N)cc1)c1ccccc1`
## Output 1300

## Input What value of SP (relative sweetening potency) has been reported for the following molecule? `N#Cc1ccc(NC(=O)[C@H](CCC(=O)O)NC(=O)C2(c3ccccc3)CCCC2)cc1`
## Output 2000

## Input What value of SP (relative sweetening potency) has been reported for the following molecule? `CCCC[C@H](C)C(=O)N[C@@H](CCC(=O)O)C(=O)Nc1ccc(C(N)=O)cc1`
## Output 700

----------
run.description: Sweetening potency: taste comparison by a team of eight experienced people with a sucrose reference solution
condition.summary: Table 3; weight basis, compared with a 2% aqueous solution of sucrose
measured.metric: SP (relative sweetening potency)

For orientation, consider the following solved cases.
compound: CCCCC(C)C(=O)N[C@@H](CC(=O)O)C(=O)Nc1ccc(C#N)cc1 (stereo partly shown) [CH3/H/CH3 (CH2)3/RS/1/CH/CH/CN]
SP (relative sweetening potency): 1500
--
compound: C[C@@H](Oc1ccccc1)C(=O)N[C@@H](CC(=O)O)C(=O)Nc1ccc(C#N)cc1 [CH3/H/C6 H5 O/R/1/CH/CH/CN]
SP (relative sweetening potency): 18000
--
compound: CC(C)CCC(C)(C)C(=O)N[C@@H](CCC(=O)O)C(=O)Nc1ccc(C#N)cc1 [CH3/CH3/(CH3)2 CH(CH2)2/2/CH/CH/CN]
SP (relative sweetening potency): 10000

The record that follows has no SP (relative sweetening potency) shown yet.
## Input What value of SP (relative sweetening potency) has been reported for the following compound? CCCCC(C)(C)C(=O)N[C@@H](CCC(=O)O)C(=O)Nc1ccc(C#N)cc1 [CH3/CH3/CH3 (CH2)3/2/CH/CH/CN]
## Output 11000

----------
run.description: Stability: accelerated ageing in aqueous solution at pH 3 and 70° C., remaining product by HPLC (half-life)
Format: physicochemical
condition.summary: phosphate buffer, pH 3, accelerated ageing, pH 3, 70° C.; read-out: half-life (converted)
Excerpt: The stability of the compounds of the invention, in particular those containing the L-glutamyl residue, is very high and can in certain cases be about three hundred times greater than that of the compounds of the prior art. […]
Peptide text beside a SMILES is read from it.
Measured half-life accompanies every entry in the list below.

## Input What value of half-life has been reported for the following molecule? COC(=O)[C@H](Cc1ccccc1)NC(=O)[C@@H](N)CC(=O)O [aspartame, reference compound] (H-Asp-Phe-OMe)
## Output 1 days

## Input What value of half-life has been reported for the following molecule? `C[C@@H](Oc1ccccc1)C(=O)N[C@@H](CCC(=O)O)C(=O)Nc1ccc(C#N)nc1`
## Output ~60 days

## Input What value of half-life has been reported for the following molecule? `CCCC[C@H](C)C(=O)N[C@@H](CCC(=O)O)C(=O)Nc1ccc(C#N)cc1`
## Output > 60 days

## Input What value of half-life has been reported for the following molecule? `N#Cc1ccc(NC(=O)[C@H](CC(=O)O)NCc2ccccc2)cc1`
## Output ~2 days

## Input What value of half-life has been reported for the following molecule? `CCCC[C@H](C)C(=O)N[C@@H](CCC(=O)O)C(=O)Nc1ccc(C#N)nc1`
## Output ~60 days

## Input What value of half-life has been reported for the following molecule? `CCCCC(C)(C)C(=O)N[C@@H](CCC(=O)O)C(=O)Nc1ccc(C#N)nc1`
## Output ~70 days

----------
run.description: Sweetening potency: taste comparison by a team of eight experienced people with a sucrose reference solution
condition.summary: Table 3; weight basis, compared with a 2% aqueous solution of sucrose
measured.metric: SP (relative sweetening potency)
// no unit string in output, number only

For orientation, consider the following solved cases.
compound: CO[C@](C(=O)N[C@@H](CCC(=O)O)C(=O)Nc1ccc(C#N)cc1)(c1ccccc1)C(F)(F)F
SP (relative sweetening potency): 600

compound: CCCCC(OC)C(=O)N[C@@H](CCC(=O)O)C(=O)Nc1ccc(C#N)nc1 (stereo partly drawn)
SP (relative sweetening potency): 2000

compound: N#Cc1ccc(NC(=O)[C@H](CCC(=O)O)NC(=O)C(c2ccccc2)c2ccccc2)cc1
SP (relative sweetening potency): 250

compound: CC(Oc1ccccc1)C(=O)N[C@@H](CCC(=O)O)C(=O)Nc1ccc(C#N)cc1 (stereo partly drawn)
SP (relative sweetening potency): 4000

compound: CC(OC1C(C)CCCC1C)C(=O)N[C@@H](CCC(=O)O)C(=O)Nc1ccc(C#N)cc1 (stereo partly drawn)
SP (relative sweetening potency): 1000

## Input What value of SP (relative sweetening potency) has been reported for the following compound? CCCCCC(C)C(=O)N[C@@H](CCC(=O)O)C(=O)Nc1ccc(C#N)cc1 (stereo partly drawn)
## Output 1000

## Input What value of SP (relative sweetening potency) has been reported for the following compound? `N#Cc1ccc(NC(=O)[C@H](CC(=O)O)NC(=O)C2(c3ccccc3)CC2)cc1`
## Output 1000

## Input What value of SP (relative sweetening potency) has been reported for the following compound? `CCCC[C@H](C)C(=O)N[C@@H](CCC(=O)O)C(=O)Nc1ccc(C(C)=O)cc1`
## Output 300

## Input What value of SP (relative sweetening potency) has been reported for the following compound? `N#Cc1ccc(NC(=O)[C@H](CCC(=O)O)NC(=O)C2(c3ccccc3)CC2)cc1`
## Output 2500

## Input What value of SP (relative sweetening potency) has been reported for the following compound? `CCCCC(C)(C)C(=O)N[C@@H](CCC(=O)O)C(=O)Nc1ccc(Cl)nc1`
## Output 600

## Input What value of SP (relative sweetening potency) has been reported for the following compound? CC(C(=O)N[C@@H](CCC(=O)O)C(=O)Nc1ccc(C#N)cc1)C1CCCCC1 (stereo partly drawn)
## Output 1000

## Input What value of SP (relative sweetening potency) has been reported for the following compound? CC(C)CCC(C)C(=O)N[C@@H](CCC(=O)O)C(=O)Nc1ccc(C#N)cc1 (stereo partly drawn)
## Output 6000

## Input What value of SP (relative sweetening potency) has been reported for the following compound? `CCCCCC(C)(C)C(=O)N[C@@H](CCC(=O)O)C(=O)Nc1ccc(C#N)nc1`
## Output 3000

## Input What value of SP (relative sweetening potency) has been reported for the following compound? CCCCC(CC)C(=O)N[C@@H](CCC(=O)O)C(=O)Nc1ccc(C#N)cc1 (stereo partly drawn)
## Output 5000

## Input What value of SP (relative sweetening potency) has been reported for the following compound? COC(C(=O)N[C@@H](CCC(=O)O)C(=O)Nc1ccc(C#N)cc1)c1ccccc1 (stereo partly drawn)
## Output 2300

Where do the numbers come from? From patent US5374733A.
